targetSystem: MAP1LC3A, Q9H492
protocol: median log2 fold change of GCK-ALFA target abundance (FLAG IP / Myc IP barcode read proportion) (log2 ratio); each designed protein is fused to an ALFA-tag nanobody in HEK293 cells to bring the named protein to FLAG-tagged glucokinase (GCK); Myc marks an untargeted standard; higher = target protein stabilised (more abundant)
experimentalContext: target protein: 3xFLAG-MCP-GCK-ALFA reporter; HEK293 landing pad (RPLP)
The full ranking holds about 2,300 sequences; the median of “median log2 fold change of GCK-ALFA target abundance (FLAG IP / Myc IP barcode read proportion)” is about 0.095, and the lowest 2% start at about -0.47. The entries come from a sample that favours the lowest values as a whole.
Classify by measured median log2 fold change: Condition met if it is equal to or exceeds -0.2, Condition not met if it is smaller.

# binder, labelValue
data = [
    ("LC3A_17_552 (protein) REELRERLRRLLEELRALVERLEPYDPEAARRLRERLERAEELLEAGRLREAAETLAEAAREAARRAEELEPKYGNEMSVLAMEFNGLELEAIGLLLELD", "Condition met"),
    ("LC3A_141_376 (protein) KEVEFELEAKGETPEEVVEKMDELEEKVLKAYEELGGGKVKVKVTLTLTNRETGEVKVVEEEFVGDKETIEMLLDGFLIEAASAVMRAPTDVKLKVVLEK", "Condition met"),
    ("LC3A_28_772 (protein) MDIKENAAKAIAEAKAAAAAGEEAVIEIKVPDGATEEDIEIVIKALEEIAEITKDMKSISVVIDVDGGVKQEHLDKLAKAAEEIEEKYPNVTVIIALDEN", "Condition met"),
    ("LC3A_28_1037 (protein) DELRRRAEEAVKEAEEQAKKGEEAVVTIKVGKLPTEEAKRIVREALERLIKISKKYGNVKISVVIDVDGDQELVDAIIDVAEEAEKKNPNLTVIIALSEE", "Condition not met"),
    ("LC3A_147_496 (protein) ATVEVDVLVKDKEAAEKVVEEFKKLVEKLKKQGIEVELEVEIEQISPDTWYVKITIKIKAKTEEEEKKVANEVVDEIEKIEEKYKDKILASLISVEIEEK", "Condition met"),
    ("LC3A_3_1472 (protein) LEERLEEVLKRLREAGASEEVLEAVREAYEKLKELGHEEAAKTFIEEMEKLVGLPSELLLAFAEDVLAAVEKYADDPEKLIEEIKSIAAATRNEAEIIEL", "Condition met"),
    ("LC3A_free_8_2524 (protein) SKQEFANKATEVLDELEEKLRKALEELGASRLDILEAEVLVGSIIAEVISLSDKEPEEQLKAIKEGLKDLVEELEKYKETVKKLADEALKKIEEIKKELE", "Condition not met"),
    ("LC3A_3_1539 (protein) LEEEIEAALALLREAGASEETLAAFREAAEALLERGYEEALRELIRETRELIDAPSELLLAFFEEVLALVRTSDLSEEELIAEIRRIARTTRNEAEIEEL", "Condition met"),
    ("LC3A_28_1055 (protein) SAVEEQIKKALEEAKELAAKGEEALIEIEIEEDDTEEDVEKKLKTIEEIAEINKDLPSTSIIVNVNNKNKEEVTKKFADLGDELEKKYPNVTVIIALSEE", "Condition met"),
    ("LC3A_free_39_2201 (protein) SEEEFEKYKEELLKLAEKEGEEALKEAKELLKEIEGNVNLAKTVLEEVKRAVEEGADVLELLKELLKLVKELKKEGKSEEEIIKEMKAKADVIINLIPID", "Condition met"),
    ("LC3A_free_39_2211 (protein) SEEELEELLKKVAEESGLDYEYIRERVEEIRRVAGLSLEQMLELVKAILEAVREGADAEEILEEVLALAKELVAAGKSPEEIAEALLEEVEDFRNLIPLD", "Condition not met"),
    ("LC3A_free_0_2103 (protein) SVTVVEVVAISKEKWSEEKAKKLKEAAEKLAKELEEKYGMETEVKLEEIDGRQVLTIKAKKEGMSIDEGLEIADYIADHLEEKAKELGVEVEIYESVYEE", "Condition met"),
    ("LC3A_3_1891 (protein) LEERIERTEELLREKGASEETIELFRKVMELLKARGYEEALKTLIEEVEELADLPDEILLDFLEEVLEVLETEDLSEEELIKKIKELARLARNEGEIIEL", "Condition met"),
    ("LC3A_127_175 (protein) ELEELLKKLLEVAEELSEELSKPDADLEEIERLVKEAIELAKKALELDPRAEPILEAAEEIKKQLEQYKKAPEEKKEELREHMEMLAESLIIEIESLLLR", "Condition met"),
    ("LC3A_28_985 (protein) SAMEERLAAALAEAKAAAAAGEATVITIEVPSTATEEDIEKAVAALKEIGEILKGVKGSAIVVDLESGVPEEHIRKLADAGEEVEKANPDVSVIFALDED", "Condition not met"),
    ("LC3A_3_1892 (protein) LEERVEETVERLKEAGASEETIELFLEAAELLLERGYYEALETLIDEVEELIDLPDEILLDFLEEVLEVLETEDLSEEELIERIKELARLAKNEGEIEEL", "Condition not met"),
    ("LC3A_free_46_2376 (protein) YKIEIDIYFSAMSKEKAEEMAEEIKKAAEEISKKTGVKIEVEVKIITDENGETWLEVKVTIEGEDKEKALKAATELIDKFDEIAEKHGVSLIISVEEIDE", "Condition not met"),
]
